test_target: HLA B*4403 (human)
assay_notes: inhibition of radiolabeled probe peptide binding to purified HLA

binder	result_units	IC50
GEGLHKLGY [GEGLHKLGY (DENV1 3004-3012)]	nM	281
